Values were extracted from patent US20260015434A1.

# experimental-system: TG10 binding to PNAG 0, PNAG 1, and PNAG 16
# experiment-notes: TG10 glucosamine IC50 inhibition assay on the array
# measurement-conditions: three best binding conjugates on the array (PNAG 0, PNAG 1, PNAG 16); TG10 diluted to 30 nM
pIC50: −log10 of the molar value.
measured-property: pIC50

Req: Give the measured pIC50 of N[C@H]1C(O)O[C@H](CO)[C@@H](O)[C@@H]1O (stereo partly shown) .
Resp: 2.70 to 3.00
